target: von Hippel-Lindau disease tumor suppressor/Bromodomain-containing protein 4 (Homo sapiens, UniProt O60885+P40337); assay: Protac activity at VHL E3 ligase/BRD4 in HEK293 cells assessed as BRD4 degradation by HiBiT assay; format: cell-based
Sequence (P40337 whole entry, looked up, other chains not shown): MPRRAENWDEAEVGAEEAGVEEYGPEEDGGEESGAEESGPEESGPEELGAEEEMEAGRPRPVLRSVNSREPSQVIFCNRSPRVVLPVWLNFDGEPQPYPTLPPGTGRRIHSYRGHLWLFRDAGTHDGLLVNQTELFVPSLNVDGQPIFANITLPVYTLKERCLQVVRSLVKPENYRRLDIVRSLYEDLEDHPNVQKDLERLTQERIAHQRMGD
property: pDC50

compound | pDC50
Cc1sc2c(c1C)C(c1ccc(Cl)cc1)=N[C@@H](CC(=O)NCCCCCC(=O)NCCCC#Cc1cccc3c1CN(C1CCC(=O)NC1=O)C3=O)c1nnc(C)n1-2 (stereo in doubt; 9P) | 7.4

[1] Cc1ncsc1-c1ccc(CNC(=O)[C@@H]2C[C@@H](O)CN2C(=O)[C@@H](NC(=O)CN2CCN(C(=O)CCCCCNC(=O)C[C@@H]3N=C(c4ccc(Cl)cc4)c4c(sc(C)c4C)-n4c(C)nnc43)CC2)C(C)(C)C)cc1 (stereo in doubt)
[2] Cc1sc2c(c1C)C(c1ccc(Cl)cc1)=N[C@@H](CC(=O)N1CCN(CCCC3CCN(c4ccc5c(c4)CN(C4CCC(=O)NC4=O)C5=O)CC3)CC1)c1nnc(C)n1-2 (stereo in doubt; 11P)
Could you check which of 1 and 2 has a smaller value for pDC50? Output the label that corresponds to your choice.
1

* * *

biological target: von Hippel-Lindau disease tumor suppressor/Bromodomain-containing protein 4 (Homo sapiens, UniProt O60885+P40337); assay: Protac activity at VHL E3 ligase/BRD4 in HEK293 cells assessed as degradation maximum by HiBiT assay relative to control; type: cell-based
property: Emax (%)

molecule | property | u | reading
Cc1ncsc1-c1ccc(CNC(=O)[C@@H]2C[C@@H](O)CN2C(=O)[C@@H](NC(=O)CN2CCN(C(=O)CCCCCNC(=O)C[C@@H]3N=C(c4ccc(Cl)cc4)c4c(sc(C)c4C)-n4c(C)nnc43)CC2)C(C)(C)C)cc1 (stereo in doubt; 8P) | Emax | % | 80
Cc1sc2c(c1C)C(c1ccc(Cl)cc1)=N[C@@H](CC(=O)N1CCN(CC#Cc3ccc4c(c3)CN(C3CCC(=O)NC3=O)C4=O)CC1)c1nnc(C)n1-2 (stereo in doubt; 4P) | Emax | % | 91
Cc1ncsc1-c1ccc(CNC(=O)[C@@H]2C[C@@H](O)CN2C(=O)[C@@H](NC(=O)CCCCCCNC(=O)C[C@@H]2N=C(c3ccc(Cl)cc3)c3c(sc(C)c3C)-n3c(C)nnc32)C(C)(C)C)cc1 (stereo in doubt) | Emax | % | 96
Cc1sc2c(c1C)C(c1ccc(Cl)cc1)=N[C@@H](CC(=O)N1CCC3(CCN(CC4CCN(c5ccc6c(c5)CN(C5CCC(=O)NC5=O)C6=O)CC4)CC3)CC1)c1nnc(C)n1-2 (stereo in doubt) | Emax | % | 99
Cc1sc2c(c1C)C(c1ccc(Cl)cc1)=N[C@@H](CC(=O)N1CCN(CC3CCN(c4ccc5c(c4)CN(C4CCC(=O)NC4=O)C5=O)CC3)CC1)c1nnc(C)n1-2 (stereo in doubt; 1P) | Emax | % | 89

* * *

molecular target: von Hippel-Lindau disease tumor suppressor/Bromodomain-containing protein 4 (Homo sapiens, UniProt O60885+P40337); test: Protac activity at VHL E3 ligase/BRD4 in HEK293 cells assessed as BRD4 degradation by HiBiT assay; type: cell-based
property: pDC50

compound | reading
Cc1sc2c(c1C)C(c1ccc(Cl)cc1)=N[C@@H](CC(=O)N1CCC(CCN3CCC4(CC3)CCN(c3ccc5c(c3)CN(C3CCC(=O)NC3=O)C5=O)CC4)CC1)c1nnc(C)n1-2 (stereo in doubt) | 9
Cc1sc2c(c1C)C(c1ccc(Cl)cc1)=N[C@@H](CC(=O)N1CCC3(CC1)CCN(c1ccc4c(c1)CN(C1CCC(=O)NC1=O)C4=O)CC3)c1nnc(C)n1-2 (stereo in doubt; 5P) | 8.6
Cc1sc2c(c1C)C(c1ccc(Cl)cc1)=N[C@@H](CC(=O)N1CCC3(CCN(CC4CCN(c5ccc6c(c5)CN(C5CCC(=O)NC5=O)C6=O)CC4)CC3)CC1)c1nnc(C)n1-2 (stereo in doubt) | 9.2
Cc1sc2c(c1C)C(c1ccc(Cl)cc1)=N[C@@H](CC(=O)N1CCC(CCN3CCC4(CC3)CCN(c3ccc5c(c3)CN(C3CCC(=O)NC3=O)C5=O)CC4)CC1)c1nnc(C)n1-2 (stereo in doubt; 2P) | 9.2
Cc1sc2c(c1C)C(c1ccc(Cl)cc1)=N[C@@H](CC(=O)N1CCN(CCCC3CCN(c4ccc5c(c4)CN(C4CCC(=O)NC4=O)C5=O)CC3)CC1)c1nnc(C)n1-2 (stereo in doubt) | 8.8
